# System: Hyperlipidemic Hamster
# assayExplanation: In Vivo Assay of Hypolipidemic Agents Using the Hyperlipidemic Hamster
# conditionNotes: Mesocricetus auratus, po, 168 h, 50 mg/kg once daily oral, 7 days; percent change versus control, negative = lowering; read-out: % Reduction (in vivo) Cholest. Esters
endpoint: change in vivo at 50 mg/kg (%)
Express the result in % but write the number alone.

In [3]: df
Out[3]:
                                   molecule                    endpoint  measvalue
0  CCCCCCCCCC[C@@H]1C(=O)N(c2ccc(OC)cc2)[C@@H]1c1ccc(OC)cc1 (relative stereo) [Example 1CL]  change in vivo at 50 mg/kg        -18

Any idea what change in vivo at 50 mg/kg was measured for COc1ccc(N2C(=O)[C@@](C)(CCCc3ccccc3)[C@@H]2c2ccccc2)cc1 (relative stereo) [Example 3J] ?
-16

Give the measured change in vivo at 50 mg/kg of COc1ccc([C@H]2[C@@H](CCc3ccccc3)C(=O)N2c2ccc(OC)cc2)cc1 (relative stereo) [Example 1CC] .
0

Please look up its change in vivo at 50 mg/kg: COc1ccc([C@@H]2[C@@H](CCCc3ccccc3)C(=O)N2c2ccc(C#N)cc2)cc1 (relative stereo) [Example 7D]
-74

Returns the measured change in vivo at 50 mg/kg for the input molecule. Input: CON=Cc1ccc([C@H]2[C@H](CCCc3ccccc3)C(=O)N2c2ccc(OC)cc2)cc1 (relative stereo) [Example 27A]
-42

Would you mind telling me what change in vivo at 50 mg/kg value was observed for COc1ccc(N2C(=O)[C@H](CCCc3ccccc3)[C@@H]2c2ccc(CO[Si](C)(C)C(C)(C)C)cc2)cc1 (relative stereo) [Example 1AT] ?
-28

Field request: change in vivo at 50 mg/kg | item: COc1ccc(N2C(=O)[C@H](CCCc3ccccc3)[C@@H]2c2cc3ccccc3o2)cc1 (relative stereo) [Example 1BZ]
0
